# System: H929 cells
# assay comment: CCK8 cytotoxicity, H929 multiple myeloma cells
# Assay type: cell-based
# conditions: Homo sapiens, NCI-H929, 72 h
attribute measured: IC50 (µM)
// units = µM; emit number, no label

Which measured IC50 belongs to "O=C(Nc1ccc(O)cc1)c1ccccc1O" , tested on H929 cells?
179
